# System: BT-549
# Protocol Notes: NCI tumour cell line growth inhibition, 48 h
Where a name gives a salt, the structure may show the parent alone. Active and inactive are the calls of the source. No stated cut-off is given here; in the data, active = GI50 up to about 1.1 µM and inactive = higher.
I would appreciate it if you answered using one of these outcomes: active, inactive

query: Kindly provide the recorded test outcome for the following compound: "CCN(CC)c1ccc2cc(-c3nnc(-c4ccccc4)[nH]3)c(=O)oc2c1"
result: inactive

query: Kindly provide the recorded test outcome for the following compound: COc1cc(OC)c2c(c1)OC(c1cccnc1)C(c1ccccc1)C2=O (stereo not given)
result: inactive

query: Kindly provide the recorded test outcome for the following compound: "Cc1cccc(CNc2[nH]cnc3nncc2-3)c1"
result: inactive

query: Kindly provide the recorded test outcome for the following compound: CCO/C=N/C1=C(C#N)C(c2ccc(OC)c(OC)c2)c2c(-c3ccccc3)nn(-c3ccccc3)c2O1 (stereo not given)
result: inactive

query: Kindly provide the recorded test outcome for the following compound: "O=c1oc2cc(O)ccc2cc1-c1nc2ccccc2o1"
result: inactive

query: Kindly provide the recorded test outcome for the following compound: "NCCNc1ccc(NCCN)c2c1C(=O)c1c(O)ccc(O)c1C2=O"
result: active

query: Kindly provide the recorded test outcome for the following compound: "O=C(O)CN1C=C(C(=O)c2cc3ccccc3n2S(=O)(=O)c2ccccc2)CCC1"
result: inactive

query: Kindly provide the recorded test outcome for the following compound: "CC(C)(C)OC(=O)N1CCCC1=O"
result: inactive

query: Kindly provide the recorded test outcome for the following compound: CC[C@]12CN3CCc4c([nH]c5ccccc45)[C@@](C(=O)OC)(c4cc5c(cc4OC)N(C)[C@H]4[C@@](O)(C(=O)OC)[C@H](OC(C)=O)[C@]6(CC)C=CCN7CC[C@]54[C@@H]76)CC(C3)[C@H]1O2 (stereo not given in full) [VINLEUROSINE SULFATE]
result: inactive

query: Kindly provide the recorded test outcome for the following compound: "Cc1cc2nc(N3C(=O)/C(=C/c4ccc(Oc5ccccc5)cc4)N=C3c3ccccc3)sc2cc1C"
result: inactive

query: Kindly provide the recorded test outcome for the following compound: "Cc1cc(C)n(C(=CC(=O)C(Cl)Cl)n2nc(C)cc2C)n1"
result: inactive

query: Kindly provide the recorded test outcome for the following compound: Cc1ccc2c(c1)C(C1Cc3cccc(C)c3C1=O)OC2=O (stereo not given)
result: inactive

query: Kindly provide the recorded test outcome for the following compound: CCCCCCCCCCC1OC([C@@H](O)CC[C@H](O)C2CC[C@@H](CCCCCCCC(O)CC3=CC(C)OC3=O)O2)CCC1O (stereo not given in full)
result: inactive

query: Kindly provide the recorded test outcome for the following compound: "O=C(NNC(=O)c1ccccc1O)c1ccccc1O"
result: active

query: Kindly provide the recorded test outcome for the following compound: COc1ccc(C2CC3(c4ccccc4)ON=C(c4ccccc4)N3c3ccccc3S2)cc1 (stereo not given)
result: inactive

query: Kindly provide the recorded test outcome for the following compound: COc1ccc(C2c3c(n(C)c(=O)n(C)c3=O)OC(N(C)C)(N(C)C)C2(F)F)cc1 (stereo not given)
result: inactive

query: Kindly provide the recorded test outcome for the following compound: "N#Cc1nnn(-c2ccccc2)c1O"
result: inactive

query: Kindly provide the recorded test outcome for the following compound: "CCN1C(=O)CS/C1=N\NC(=O)CSc1nc2ccccc2c(=O)n1CC"
result: inactive

query: Kindly provide the recorded test outcome for the following compound: "CCOP(=O)(OCC)[C@H]1OC(C)(C)O[C@@H]1CO"
result: inactive

query: Kindly provide the recorded test outcome for the following compound: "O=C(N/N=C/c1ccc([N+](=O)[O-])cc1)Nc1ccc(Br)cc1"
result: inactive

---

# Test system: M19-MEL
# Protocol Notes: NCI tumour cell line growth inhibition, 48 h
Calls of active or inactive are those of the source. Cut-off read from the data, not from the text of the source: active = GI50 up to about 1.1 µM and inactive = higher.
Experimental Endpoint: GI50

query: // GI50 lookup, key: NC(=O)C(=O)N/N=C1\C(=O)N(c2ccc(Cl)cc2Cl)C(=O)C1C(=O)Nc1ccc(Cl)cc1Cl (stereo unspecified)
result: > 100 µM (inactive)

query: // GI50 lookup, key: "O=c1cc(-c2ccccc2)nc(/C=C(\O)c2ccncc2)n1-c1ccccc1"
result: > 100 µM (inactive)

query: // GI50 lookup, key: "COc1cc(NC(C)=O)c2[nH]c3c(C)cc(NC(C)=O)c(C)c3c2c1"
result: > 100 µM (inactive)

query: // GI50 lookup, key: CC(C)OC(=O)C1Cc2c([nH]c3ccccc23)C(c2ccccc2)N1 (stereo unspecified)
result: > 100 µM (inactive)

query: // GI50 lookup, key: "Cc1ccccc1NC(=O)C(=O)CC(=O)c1ccc([N+](=O)[O-])cc1"
result: > 100 µM (inactive)

query: // GI50 lookup, key: "O=C[C@@H](CO)O[C@H](C=O)n1cnc2c(=O)nc[nH]c21"
result: 346 µM (inactive)

query: // GI50 lookup, key: "COc1cc(OC)c(C(=O)c2cccs2)cc1N"
result: > 100 µM (inactive)

query: // GI50 lookup, key: "COc1ccc2[nH]c3c4c(c5cc(C(C)(C)C)ccc5c3c2c1)C(=O)N(c1ccccc1)C4=O"
result: > 100 µM (inactive)

query: // GI50 lookup, key: "COc1cc(C(=O)C/C(CCC(=O)Nc2ccc(Cl)cc2Cl)=N/NC(=O)C(N)=O)ccc1O"
result: > 100 µM (inactive)

query: // GI50 lookup, key: N#CC(c1ccccn1)c1nc2ccccc2[nH]1 (stereo unspecified)
result: > 100 µM (inactive)

query: // GI50 lookup, key: O=C1C(Cl)C(c2ccccc2O)N1n1cnc2ccccc2c1=O (stereo unspecified)
result: 97.3 µM (inactive)

query: // GI50 lookup, key: COC(=O)C(=O)C(C(=O)C(=O)Nc1ccc(C)cc1C)c1nc2ccccc2nc1O (stereo unspecified)
result: > 100 µM (inactive)

query: // GI50 lookup, key: COc1cc(C2C(Cl)C(=O)N2NC(=O)Cc2ccccc2)ccc1O (stereo unspecified)
result: > 100 µM (inactive)

query: // GI50 lookup, key: "Cc1c(Cl)ccc2[s+]snc12"
result: 33 µM (inactive)

query: // GI50 lookup, key: NC1=NN(c2ccccc2)C(=O)C1C(=O)CCC(=O)Nc1cccc(Cl)c1 (stereo unspecified)
result: > 100 µM (inactive)

query: // GI50 lookup, key: "C[N+](C)(C)CC(=O)N/N=C(\CCC(=O)NCCc1ccccc1)CC(=O)c1ccccc1"
result: > 100 µM (inactive)

query: // GI50 lookup, key: "CCc1cccc(C)c1NC(=O)C1=C(C)NC(C)=C(C(=O)Nc2c(C)cccc2CC)C1c1ccc([N+](=O)[O-])cc1"
result: 38.1 µM (inactive)

query: // GI50 lookup, key: "O=C(COc1ccc(Cl)cc1)N1CCN(C(=O)COc2ccc(Cl)cc2)c2ccccc21"
result: 38.1 µM (inactive)

query: // GI50 lookup, key: "CN1C/C(=C\c2ccccc2)C2=NN(C(N)=S)[C@H](c3ccccc3)[C@@H]2C1"
result: 55.2 µM (inactive)

query: // GI50 lookup, key: O=C1Nc2ccccc2N=CC1NC(=O)C(c1ccccc1)c1ccccc1 (stereo unspecified)
result: > 100 µM (inactive)

query: // GI50 lookup, key: "CC(C)c1cccc(C(C)C)c1NC(=S)Nc1ccccc1"
result: > 100 µM (inactive)

---

# Test system: A498
# Protocol Notes: NCI tumour cell line growth inhibition, 48 h
Calls of active or inactive are those of the source. Cut-off read from the data, not from the text of the source: active = GI50 up to about 1.1 µM and inactive = higher.
I would appreciate it if you answered using one of these outcomes: active, inactive

query: Kindly provide the recorded test outcome for the following molecule: CC(C)=CCc1c(O)cc(O)c2c1OC(c1ccc(O)cc1)C(O)C2=O (stereo unspecified)
result: inactive

query: Kindly provide the recorded test outcome for the following molecule: "COc1ccc(C(=O)Nc2ccc(S(=O)(=O)NCC(=O)O)cc2)cc1"
result: inactive

query: Kindly provide the recorded test outcome for the following molecule: O=C1CC(c2ccc(Cl)cc2)Oc2ccccc21 (stereo unspecified)
result: inactive

query: Kindly provide the recorded test outcome for the following molecule: "O=C1c2ccccc2-n2c1nc1ccc([N+](=O)[O-])cc1c2=O"
result: inactive

query: Kindly provide the recorded test outcome for the following molecule: "O=C(/C=C\Nc1ccccc1O)C(Cl)(Cl)Cl"
result: inactive

query: Kindly provide the recorded test outcome for the following molecule: COc1cc(NS(C)(=O)=O)ccc1Nc1c2ccccc2nc2c1[nH]c1ccc(NC3OC(CO)C(O)C(O)C3O)cc12 (stereo unspecified)
result: active

query: Kindly provide the recorded test outcome for the following molecule: "c1ccc(CSCCC(SCc2ccccc2)SCc2ccccc2)cc1"
result: inactive

query: Kindly provide the recorded test outcome for the following molecule: "O=C[C@@H](CO)O[C@H](C=O)n1cnc2c(=O)nc[nH]c21"
result: inactive

query: Kindly provide the recorded test outcome for the following molecule: "COc1cccc(OC)c1/C=C1\OC(=O)c2cccc(OC)c21"
result: inactive

query: Kindly provide the recorded test outcome for the following molecule: "Cc1cnoc1/N=C1\C=C(O)C(=O)c2ccccc21"
result: inactive

query: Kindly provide the recorded test outcome for the following molecule: CC1=CSC(O)(c2ccc(Cl)cc2)c2noc(=O)n21 (stereo unspecified)
result: inactive
